molecular target: T1, P3028 (VFDEFKPLVEEPQNLIK, SEQ ID NO: 185), His-tagged (human); experiment: PEPSCAN ELISA; peptide on chip, His-P3028 added;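 further: peroxidase color development with ABTS and H2O2 substrate, OD405 imaged by CCD camera with image processing and taken as raw values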
T1 construct: Synthetic fragment of human serum albumin (positions 397-413); used in solution as His-tagged peptide PGE73; also called PGE73; not shown: His-tag
T1 peptide: VFDEFKPLVEEPQNLIK
measuredMetric: RAMPO Score
Please don't drop the unit; write it after the number.

The cases that follow already have their RAMPO Score on record.
binder	RAMPO Score
KKLDTFFVKLSLFNER [KKLDTFFVKLSLFNER (SEQ ID NO: 382)]	599 rampo units
KKLDTFFVKYSLFTER [KKLDTFFVKYSLFTER (SEQ ID NO: 344)]	382 rampo units
KKLDTFFVKLSLFTEV [KKLDTFFVKLSLFTEV (SEQ ID NO: 521)]	254 rampo units

# evaluate next
Given item KRLDTFFVKLSLFTER [KRLDTFFVKLSLFTER (SEQ ID NO: 407)] , the value recorded as its RAMPO Score is 417 rampo units
